# target_of_assay: T1, murine TIM-3 extracellular domain protein with hFc tag (mTIM-3-hFc) (mouse, UniProt Q8VIM0 29-191)
# T1 construct: also called mouse TIM-3 extracellular domain protein; not shown: human IgG Fc fragment (hFc) of the pCpC vector
# T1 chain: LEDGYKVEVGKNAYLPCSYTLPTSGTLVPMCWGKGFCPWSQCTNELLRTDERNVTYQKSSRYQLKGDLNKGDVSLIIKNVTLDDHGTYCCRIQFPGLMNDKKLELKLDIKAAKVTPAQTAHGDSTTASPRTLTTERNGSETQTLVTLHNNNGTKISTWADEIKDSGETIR
# run_description: ELISA, coated mouse TIM-3 ECD protein, 6.6667 nM antibody
Quick reference for OD450 among some binders
Please reply with the value in numeric form only.

Task: Returns the measured OD450 for the input binder. Input: 7A4F10 fully human TIM-3 antibody (human IgG4, kappa) (antibody, V domains shown) VH: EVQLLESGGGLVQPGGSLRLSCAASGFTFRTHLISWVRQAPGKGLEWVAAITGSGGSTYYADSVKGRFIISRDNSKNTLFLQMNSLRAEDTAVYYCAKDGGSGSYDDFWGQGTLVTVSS VL: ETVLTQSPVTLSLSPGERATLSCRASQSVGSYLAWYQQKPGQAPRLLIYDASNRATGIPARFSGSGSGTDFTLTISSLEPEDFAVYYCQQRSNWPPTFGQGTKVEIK
Result: 0.36

Task: Also 34B6D8 fully human TIM-3 antibody (human IgG4, kappa) (antibody, V domains shown) VH: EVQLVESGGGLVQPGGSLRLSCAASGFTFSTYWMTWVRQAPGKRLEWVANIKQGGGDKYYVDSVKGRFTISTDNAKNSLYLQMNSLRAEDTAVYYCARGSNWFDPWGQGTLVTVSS VL: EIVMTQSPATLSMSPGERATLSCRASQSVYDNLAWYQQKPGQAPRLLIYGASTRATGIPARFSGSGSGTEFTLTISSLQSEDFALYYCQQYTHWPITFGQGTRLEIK ?
Result: 0.44

Task: Also 57F4E5 fully human TIM-3 antibody (human IgG4, kappa) (antibody, V domains shown) VH: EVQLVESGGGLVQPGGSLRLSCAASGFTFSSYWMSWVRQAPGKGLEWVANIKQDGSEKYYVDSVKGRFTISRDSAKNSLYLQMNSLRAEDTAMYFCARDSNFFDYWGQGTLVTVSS VL: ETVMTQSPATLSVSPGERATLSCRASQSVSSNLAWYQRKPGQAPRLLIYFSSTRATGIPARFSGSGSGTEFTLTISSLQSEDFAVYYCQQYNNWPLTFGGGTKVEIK ?
Result: 0.54

Task: Also 134H3G6 fully human TIM-3 antibody (human IgG4, kappa) (antibody, V domains shown) VH: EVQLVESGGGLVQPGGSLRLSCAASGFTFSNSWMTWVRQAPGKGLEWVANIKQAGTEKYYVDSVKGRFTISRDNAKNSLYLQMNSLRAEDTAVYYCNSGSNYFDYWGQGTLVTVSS VL: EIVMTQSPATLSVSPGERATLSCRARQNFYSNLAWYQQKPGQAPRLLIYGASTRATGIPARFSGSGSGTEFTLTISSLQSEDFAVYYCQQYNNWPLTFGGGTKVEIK ?
Result: 0.36
